# ASSAY DETAILS: qHTS profiling of the MIPE4 collection as inhibitors of Plasmodium falciparum (DD2) proliferation (Rep 2) (AID 743346)
# CONDITION DESCRIPTION: P. falciparum Dd2 in erythrocytes, SYBR Green DNA, 72 h; at 28.5 µM unless noted
MEASURED PARAMETER: parasite growth, % of control (lower = inhibition)

NC(=O)c1cccc2cn(-c3ccc([C@@H]4CCCNC4)cc3)nc12; 25.3%
CC(C)(C)c1cc(NC(=O)Nc2ccc(-c3cn4c(n3)sc3cc(OCCN5CCOCC5)ccc34)cc2)no1; 15.2%
COc1cc2c(cc1-c1c(C)noc1C)ncc1[nH]c(=O)n([C@H](C)c3ccccn3)c12; 86.2%
Cc1cc(Nc2nc(N[C@@H](C)c3ccc(F)cc3)c(C#N)cc2F)n[nH]1; 9.75%
COCCn1c2c([n+](Cc3cnccn3)c1C)C(=O)c1ccccc1C2=O; 11.6%
COc1cc2c(Oc3ccc(NC(=O)C4(C(=O)Nc5ccc(F)cc5)CC4)cc3F)ccnc2cc1OCCCN1CCOCC1; 20.2%
Nc1ccccc1NC(=O)c1ccc(CNC(=O)OCc2cccnc2)cc1; 25.4%
Cc1nc(N)ncc1-c1nc(N2CCOCC2)c2sc(C(C)(C)O)cc2n1; 7.48%
COc1cccc(-c2ccc(NC(=O)C3=C(C(=O)O)CCC3)c(F)c2)c1; 53%
CCCCCCCCCC(=O)N[C@@H](Cc1c[nH]c2ccccc12)C(=O)N[C@H](CC(N)=O)C(=O)N[C@@H](CC(=O)O)C(=O)N[C@@H]1C(=O)NCC(=O)N[C@@H](CCCN)C(=O)N[C@@H](CC(=O)O)C(=O)N[C@H](C)C(=O)N[C@@H](CC(=O)O)C(=O)NCC(=O)N[C@H](CO)C(=O)N[C@@H]([C@@H](C)CC(=O)O)C(=O)N[C@@H](CC(=O)c2ccccc2N)C(=O)O[C@@H]1C; 108%
C1=CCOCc2cc(ccc2OCCN2CCCC2)Nc2nccc(n2)-c2cccc(c2)OCC1; 15.5%
Cc1cc(C(=O)N2CCN(c3cccc(Cl)c3)CC2)n(-c2ccccc2)n1; 98.6%
O=C(O)CCCc1c[nH]c2ccccc12; 142%
CC[C@H]1CN2CCc3cc(OC)c(OC)cc3[C@H]2C[C@@H]1C[C@@H]1NCCc2cc(OC)c(OC)cc21; 7.29%
O=c1[nH]nc(Sc2ncc([N+](=O)[O-])s2)n1-c1ccc2c(c1)OCCO2; 60.1%
Cn1c(=O)n(-c2ccc(C(C)(C)C#N)cc2)c2c3cc(-c4cnc5ccccc5c4)ccc3ncc21; 6.52%
CCCn1c(=O)c2[nH]c(-c3cnn(Cc4cccc(C(F)(F)F)c4)c3)nc2n(CC)c1=O; 43.2%
